molecular target: T1, human TF on the cell surface of tumor cells (human, UniProt P13726 33-295); experiment: flow cytometry on MDA-MB-231 cells, antibody at 10 µg/mL; set-up: reference not given here
T1 construct: whole, on cells; Endogenous TF on TF-positive human tumor cell lines; also called cell surface TF
metric-name: MFI
Answers are plain numbers.

Need MFI for each of these binders.
1. TF-mAb-H36 (antibody, V domains shown, Humanized) VH: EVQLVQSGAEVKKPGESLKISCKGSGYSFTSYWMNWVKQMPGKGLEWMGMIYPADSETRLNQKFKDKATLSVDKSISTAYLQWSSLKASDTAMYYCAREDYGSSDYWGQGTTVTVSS VL: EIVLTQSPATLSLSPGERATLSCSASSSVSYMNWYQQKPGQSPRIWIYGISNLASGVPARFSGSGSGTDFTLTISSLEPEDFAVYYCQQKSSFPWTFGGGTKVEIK
2. TF-mAb-Ch (antibody, V domains shown, Variable regions of TF-mAb-SC1 cloned into vectors with human IgG1 heavy chain constant region and human kappa constant region; also called human-mouse chimeric antibody; chimeric antibody TF-mAb-Ch) VH: QVQLQQPGAELVRPGASVKLSCKASGYSFISYWMNWVKQRPGQGLEWIGMIYPADSETRLNQKFKDKATLTVDKSSSTAYMQLSSPTSEDSAVYYCAREDYGSSDYWGQGTTLTVSS VL: EILLTQSPAIIAASPGEKVTITCSASSSVSYMNWYLQKPGSSPKIWIYGISNLASGVPARFSGSGSGTSFSFTINSMETEDVATYYCQQKSSFPWTFGGGTKLEIK
3. TF-mAb-H42 (antibody, V domains shown, Humanized) VH: QVQLVQSGAEVKKPGASVKVSCKASGYSFISYWMNWVRQAPGQGLEWIGMIYPADSETRLNQKFKDRATLTVDKSTSTAYMELSSLRSEDTAVYYCAREDYGSSDYWGQGTTVTVSS VL: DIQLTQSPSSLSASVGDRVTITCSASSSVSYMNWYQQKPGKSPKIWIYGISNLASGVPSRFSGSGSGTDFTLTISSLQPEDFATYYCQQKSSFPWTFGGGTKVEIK

*A*
1. 3090
2. 3540
3. 3350
